Taken from patent US6506784B1.

Biological target: Mouse Brain GABA Receptors
Assay: In vitro assay of ability to bind mouse brain GABA receptors (3H-EBOB displacement, mouse brain membranes)
Conditions: inhibition of 3H-EBOB binding to mouse brain membranes; NI = non-inhibitor
pIC50: recorded values
Formally, pIC50 is defined as -log10 of the concentration c, with c in mol/L.

Completed entries (count: 3):
query: Consider the molecule "Cn1nc(C(F)(F)F)cc1OS(=O)(=O)c1c(F)cccc1F" and give its recorded pIC50.
result: 5.22

query: Using the record for "Cn1nc(C(F)(F)F)cc1OS(=O)(=O)c1ccc(Cl)cc1Cl" , state its measured pIC50.
result: 5.31

query: Provide measured pIC50 value, entry: "Cn1nc(C(F)(F)F)cc1OS(=O)(=O)c1ccc(C(F)(F)F)cc1Cl"
result: 4.85

Next:
query: Provide only the value of recorded pIC50 for "Cn1nc(C(F)(F)F)cc1OS(=O)(=O)c1cc(Cl)c(Cl)cc1Cl"
result: 5.08

query: Give the reported value of pIC50 for this record: "Cn1nc(C(F)(F)F)cc1OS(=O)(=O)c1ccc(Br)c(Br)c1"
result: 4.90

query: Give the reported pIC50 for this molecule. "Cn1nc(C(F)(F)F)cc1OS(=O)(=O)c1ccc2ccccc2c1"
result: 5.52

query: Give a short answer stating reported pIC50 for "Cc1cc(S(=O)(=O)Oc2cc(C(F)(F)F)nn2C)ccc1Cl" .
result: 4.96

query: Give recorded pIC50. "Cn1nc(C(F)(F)F)cc1OS(=O)(=O)c1ccc(F)cc1Cl"
result: 5.48

---

Biological target: Mouse Brain GABA Receptors
Assay: In vitro assay of ability to bind mouse brain GABA receptors (3H-EBOB displacement, mouse brain membranes)
Details: inhibition of 3H-EBOB binding to mouse brain membranes; NI = non-inhibitor
log10 of IC50 by entry:
Heads up, the numbers here are log10 of IC50 in µM units.

query: Return log10 of IC50 for the following compound: "Cc1cc(F)ccc1S(=O)(=O)Oc1cc(C(F)(F)F)nn1C"
result: 0.56

query: Identify the reported log10 of IC50 for the following entry. "Cn1nc(C(F)(F)F)cc1OS(=O)(=O)c1cc(Cl)ccc1Cl"
result: 0.30

More entries:
query: Answer with the recorded log10 of IC50 of "Cn1nc(C(F)(F)F)cc1OS(=O)(=O)c1cccc(F)c1" only.
result: -0.80

query: Tell me measured log10 of IC50 for "Cc1nn(-c2ccccc2)c(OS(=O)(=O)c2ccc(F)cc2Cl)c1Cl" please.
result: 0.00

query: Respond only with log10 of IC50 recorded for "Cn1nc(C(C)(C)C)cc1OS(=O)(=O)c1ccc(F)cc1Cl"
result: 0.11

---

Molecular target: Mouse Brain GABA Receptors
Assay: In vitro assay of ability to bind mouse brain GABA receptors (3H-EBOB displacement, mouse brain membranes)
Settings: inhibition of 3H-EBOB binding to mouse brain membranes; NI = non-inhibitor
metricName: IC50 (µM)
Just the number please, in µM, no unit attached.

query: Tell us which IC50 value is on record for "O=S(=O)(Oc1cc(C(F)(F)F)nn1-c1ccccc1)c1ccc(F)c(Cl)c1"
result: 12

query: Note IC50 for the compound shown: "Cn1nc(C(F)(F)F)cc1OS(=O)(=O)c1cccc(Cl)c1"
result: 0.5

query: Output IC50 of "Cn1nc(C(C)(C)C)cc1OS(=O)(=O)c1ccc(Cl)cc1Cl"
result: 5.4

Next:
query: For the compound "Cn1nc(C(F)(F)F)cc1OS(=O)(=O)c1ccc(F)c(F)c1" , give its reported IC50.
result: 1

query: Retrieve IC50 measured for "Cn1nc(C(F)(F)F)cc1OS(=O)(=O)c1ccc(Cl)c(Cl)c1" and print it.
result: 9

query: Answer with the recorded IC50 for the compound listed here: "Cc1c(Cl)cccc1S(=O)(=O)Oc1cc(C(F)(F)F)nn1C"
result: 12
